Every entry's value here was drawn from ChEMBL document CHEMBL5376006.

tested on: SK-N-SH; test: Antiproliferative activity against human SK-N-SH cells assessed as inhibition of cell growth incubated for 72 hrs by CellTiter Glo assay; format: functional, cell-based
Endpoint label: pIC50
In plain terms, pIC50 is the concentration in mol/L turned into minus its base-10 logarithm.

Noted pIC50 for CCC(=C/[C@H](C)C/C=C/C(C)=C/[C@@H](C)C(=O)[C@@H](C)[C@H](O)[C@@H](C)C/C(C)=C/C(=O)O)/C=C/[C@@H]1OC(=O)C=C[C@@H]1C [LEPTOMYCIN B] , tested on SK-N-SH: 9.52

---

target: Exportin-1 (Homo sapiens, UniProt O14980); experiment: Inhibition of CRM1 cargo nuclear export in human MCF7 cells at 50 uM incubated for 4 hrs by confocal microscopic analysis; format: cell-based
Sequence (O14980 whole entry): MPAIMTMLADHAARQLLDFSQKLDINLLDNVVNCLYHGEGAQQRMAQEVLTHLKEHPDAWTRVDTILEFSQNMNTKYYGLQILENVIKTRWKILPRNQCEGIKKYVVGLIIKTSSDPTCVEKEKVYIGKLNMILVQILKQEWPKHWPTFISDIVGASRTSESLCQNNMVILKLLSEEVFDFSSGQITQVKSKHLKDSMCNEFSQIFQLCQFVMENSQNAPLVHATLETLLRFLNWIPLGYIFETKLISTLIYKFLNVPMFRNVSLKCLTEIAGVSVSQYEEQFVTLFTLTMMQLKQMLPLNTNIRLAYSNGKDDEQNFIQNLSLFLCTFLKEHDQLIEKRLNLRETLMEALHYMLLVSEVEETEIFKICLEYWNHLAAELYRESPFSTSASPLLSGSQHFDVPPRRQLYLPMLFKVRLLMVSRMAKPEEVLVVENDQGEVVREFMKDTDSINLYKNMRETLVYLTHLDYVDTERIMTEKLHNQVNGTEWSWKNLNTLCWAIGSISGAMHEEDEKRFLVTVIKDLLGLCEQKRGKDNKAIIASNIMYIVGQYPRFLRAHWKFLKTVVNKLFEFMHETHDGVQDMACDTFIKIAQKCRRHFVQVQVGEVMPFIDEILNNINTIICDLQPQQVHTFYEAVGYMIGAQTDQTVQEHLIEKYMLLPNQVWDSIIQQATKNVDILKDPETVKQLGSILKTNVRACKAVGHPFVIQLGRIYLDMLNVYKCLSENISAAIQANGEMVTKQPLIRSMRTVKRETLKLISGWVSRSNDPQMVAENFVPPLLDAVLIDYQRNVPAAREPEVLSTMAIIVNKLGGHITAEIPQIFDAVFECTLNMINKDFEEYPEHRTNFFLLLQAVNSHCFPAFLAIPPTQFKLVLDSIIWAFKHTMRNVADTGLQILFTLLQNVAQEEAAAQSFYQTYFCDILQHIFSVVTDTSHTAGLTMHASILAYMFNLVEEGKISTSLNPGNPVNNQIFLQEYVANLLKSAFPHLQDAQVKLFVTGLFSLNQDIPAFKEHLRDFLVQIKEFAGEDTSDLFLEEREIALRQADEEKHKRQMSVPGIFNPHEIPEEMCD
Activity calls are given as the source filed them. No cut-off for these calls is given here.
Respond using exactly one of the listed classes: Y = active, N = inactive

> print(dat)
                           structure.smiles  group
1  COC(=O)c1ccc(N2CCN(c3cc(C(F)(F)F)ccc3C(F)(F)F)CC2)c(NC(=O)c2ccc(Br)cc2)c1      N
2  O=C(O)c1ccc(N2CCN(c3cc(C(F)(F)F)cc(C(F)(F)F)c3)CC2)c(NC(=O)c2ccc(Br)cc2)c1      Y
3  O=C(O)c1ccc(N2CCN(c3cc(C(F)(F)F)ccc3C(F)(F)F)CC2)c(NC(=O)c2ccc(Cl)cc2)c1      Y
4  COC(=O)c1ccc(N2CCN(c3cc(C(F)(F)F)ccc3C(F)(F)F)CC2)c(NC(=O)c2ccc(Cl)cc2)c1      N
5  COC(=O)c1ccc(N2CCN(c3cc(C(F)(F)F)cc(C(F)(F)F)c3)CC2)c(NC(=O)c2ccc(Br)cc2)c1      N

Please turn your attention to the following entry.
Lookup: GET /call?item= `O=C(O)c1ccc(N2CCN(c3cc(C(F)(F)F)ccc3C(F)(F)F)CC2)c(NC(=O)c2ccc(Br)cc2)c1` returns the recorded outcome of this test.
Found: Y

---

test system: SiHa; assay: Antiproliferative activity against human SiHa cells assessed as inhibition of cell growth incubated for 72 hrs by CellTiter Glo assay; type: functional, cell-based
Endpoint label: IC50
Record the result as number plus unit.

Entry `CCC(=C/[C@H](C)C/C=C/C(C)=C/[C@@H](C)C(=O)[C@@H](C)[C@H](O)[C@@H](C)C/C(C)=C/C(=O)O)/C=C/[C@@H]1OC(=O)C=C[C@@H]1C` — recorded IC50 = 0.3 nM

---

biological target: Exportin-1 (Homo sapiens); experiment: Inhibition of CRM1 (unknown origin) binding to GST-tagged NES PKI at 100 uM incubated for 1.5 hrs by Coomassie brilliant blue staining based pull-down assay
The source made the active and inactive calls. The calls are words filed in the database; no cut-off is given here.
Respond using exactly one of the listed classes: 1 for active, 0 for inactive

> print(dat)
                           structure.smiles              target.system  group
1  COC(=O)c1ccc(N2CCN(c3cc(C(F)(F)F)cc(C(F)(F)F)c3)CC2)c(NC(=O)c2ccc(Br)cc2)c1  Exportin-1 (Homo sapiens)      0
2  O=C(O)c1ccc(N2CCN(c3cccc(C(F)(F)F)c3)CC2)c(NC(=O)c2ccc(F)cc2)c1  Exportin-1 (Homo sapiens)      1
3  COC(=O)c1ccc(N2CCN(c3cc(Cl)ccc3Cl)CC2)c(NC(=O)c2ccc(Cl)cc2)c1  Exportin-1 (Homo sapiens)      0
4  COC(=O)c1ccc(N2CCN(c3cccc(C(F)(F)F)c3)CC2)c(NC(=O)c2ccc(Br)cc2)c1  Exportin-1 (Homo sapiens)      0
5  COC(=O)c1ccc(N2CCN(c3cc(C(F)(F)F)ccc3Cl)CC2)c(NC(=O)c2ccc(Br)cc2)c1  Exportin-1 (Homo sapiens)      0

Please turn your attention to the following entry.
Lookup: GET /call?item= `COC(=O)c1ccc(N2CCN(c3cc(C(F)(F)F)ccc3C(F)(F)F)CC2)c(NC(=O)c2ccc(Cl)cc2)c1` returns the recorded outcome of this test.
Found: 0

---

biological target: UniProtKB O14980; assay: Inhibition of CRM1 (unknown origin) binding to GST-tagged NES PKI assessed as CRM1/NES band ratio incubated for 1.5 hrs by Coomassie brilliant blue staining based pull-down assay (reference value: 1.00); set-up: concentration or dose not given beside the values
Endpoint label: Ratio

> print(dat)
                                   molecule  value.observed
1  Cc1cccc(C(=O)Nc2cc(C(=O)O)ccc2N2CCN(c3cccc(C)c3)C(C)C2)c1 (centres undefined)            0.76
2  Cc1cccc(N2CCN(c3ccc(C(=O)O)cc3NC(=O)c3ccccc3)CC2C)c1 (centres undefined)            0.81
3  O=C(O)c1ccc(N2CCN(c3ccc(F)cc3)CC2)c(NC(=O)c2ccc(F)cc2)c1            1.15

Entry `O=C(O)c1ccc(N2CCN(Cc3cccc(F)c3)CC2)c(NC(=O)c2ccccc2)c1` — recorded Ratio = 0.72

Entry `O=C(O)c1ccc(N2CCN(CC(=O)N3CCCC3)CC2)c(NC(=O)c2ccccc2)c1` — recorded Ratio = 1.08

Entry `O=C(O)c1ccc(N2CCC(N3CCCCC3)CC2)c(NC(=O)c2ccc(F)cc2)c1` — recorded Ratio = 0.83

Entry `O=C(O)c1ccc(N2CCN(c3ccc(F)cc3)CC2)c(NS(=O)(=O)c2cccc(F)c2)c1` — recorded Ratio = 0.85

Entry `O=C(O)c1ccc(N2CCN(c3ccc(F)cc3)CC2)c(NC(=O)c2ccc(Br)cc2)c1` — recorded Ratio = 1.24

Entry `O=C(O)c1ccc(N2CCC(N3CCCCC3)CC2)c(NC(=O)c2cccc(Cl)c2)c1` — recorded Ratio = 0.91

---

target: UniProt O14980; assay: Inhibition of CRM1 (unknown origin) binding to GST-tagged NES PKI assessed as CRM1/NES band ratio incubated for 1.5 hrs by Coomassie brilliant blue staining based pull-down assay (reference value: 1.00); parameters: concentration or dose not given beside the values
Grouping key: Ratio. Bins: low (below 0.8), mid (0.8 to below 0.9), high (0.9 or more)

> print(dat)
                                   compound   target.system  group
1  Cc1cccc(S(=O)(=O)Nc2cc(C(=O)O)ccc2N2CCN(c3ccc(Cl)cc3)CC2)c1  UniProt O14980   high
2  Cc1ccc(C)c(N2CCN(c3ccc(C(=O)O)cc3NC(=O)c3ccccc3C)CC2)c1  UniProt O14980   high
3  Cc1cccc(C(=O)Nc2cc(C(=O)O)ccc2N2CCN(c3ccccc3F)CC2)c1  UniProt O14980   high

Lookup: Each compound maps to one class by Ratio. Which class for `Cc1cccc(S(=O)(=O)Nc2cc(C(=O)O)ccc2N2CCN(c3ccc(F)cc3)CC2)c1` ?
Found: mid

Lookup: Each compound maps to one class by Ratio. Which class for Cc1cccc(N2CCN(c3ccc(C(=O)O)cc3NC(=O)c3ccc(F)cc3)CC2C)c1 (stereo not given) ?
Found: mid

Lookup: Each compound maps to one class by Ratio. Which class for `O=C(O)c1ccc(N2CCN(c3ccccn3)CC2)c(NC(=O)c2ccc(Cl)cc2)c1` ?
Found: mid

Lookup: Each compound maps to one class by Ratio. Which class for `Cc1ccc(C)c(N2CCN(c3ccc(C(=O)O)cc3NC(=O)c3ccc(Cl)cc3)CC2)c1` ?
Found: low

Lookup: Each compound maps to one class by Ratio. Which class for `O=C(O)c1ccc(N2CCN(c3cccc(C(F)(F)F)c3)CC2)c(NC(=O)c2ccc(F)cc2)c1` ?
Found: low

Lookup: Each compound maps to one class by Ratio. Which class for `Cc1ccc(Cl)cc1N1CCN(c2ccc(C(=O)O)cc2NC(=O)c2ccc(F)cc2)CC1` ?
Found: low

Lookup: Each compound maps to one class by Ratio. Which class for `O=C(O)c1ccc(N2CCN(c3ccccc3F)CC2)c(NC(=O)c2ccc(Br)cc2)c1` ?
Found: low

Lookup: Each compound maps to one class by Ratio. Which class for `Cc1ccc(C)c(S(=O)(=O)Nc2cc(C(=O)O)ccc2N2CCN(c3ccccc3F)CC2)c1` ?
Found: high

Lookup: Each compound maps to one class by Ratio. Which class for `O=C(O)c1ccc(N2CCN(c3ccccn3)CC2)c(NC(=O)c2cccc(Cl)c2)c1` ?
Found: low

Lookup: Each compound maps to one class by Ratio. Which class for `O=C(O)c1ccc(N2CCN(c3ccc(F)cc3)CC2)c(NS(=O)(=O)c2cc(F)ccc2F)c1` ?
Found: mid

---

biological target: UniProtKB O14980; assay: Inhibition of CRM1 (unknown origin) binding to GST-tagged NES PKI assessed as CRM1/NES band ratio incubated for 1.5 hrs by Coomassie brilliant blue staining based pull-down assay (reference value: 1.00); design: concentration or dose not given beside the values
# Ratio per record follows

Sample records with Ratio:
> print(dat)
                           structure.smiles     target.system  value.observed
1  O=C(O)c1ccc(N2CCCN(c3ccc(Cl)nn3)CC2)c(NC(=O)c2ccccc2)c1  UniProtKB O14980             0.8
2  COc1ccccc1N1CCN(c2ccc(C(=O)O)cc2NC(=O)c2ccc(Cl)cc2)CC1  UniProtKB O14980            0.88
3  O=C(O)c1ccc(N2CCN(c3cccc(F)c3)CC2)c(NC(=O)c2ccc(Cl)cc2)c1  UniProtKB O14980            0.89
4  Cc1cccc(C(=O)Nc2cc(C(=O)O)ccc2N2CCC(N3CCCCC3)CC2)c1  UniProtKB O14980            0.81
5  O=C(O)c1ccc(N2CCN(C3CCCCC3)CC2)c(NC(=O)c2ccc(F)cc2)c1  UniProtKB O14980            0.88

Entry `Cc1cccc(C(=O)Nc2cc(C(=O)O)ccc2N2CCC(CCN3CCCCC3)CC2)c1` — recorded Ratio = 0.81

Entry `Cc1ccc(C)c(N2CCN(c3ccc(C(=O)O)cc3NC(=O)c3ccc(F)cc3)CC2)c1` — recorded Ratio = 0.82
